Entries annotated with measured protein stability index
- ASSAY_NOTES: protein stability index of a GFP-peptide fusion (yeast GPS) (PSI 1-4); higher = more stable; sorted into four equal gates, so the index is relative within each strain
- EXPERIMENTAL_CONTEXT: ubr1∆

{"MONOMER_SEQUENCE": "NLDAAAAGTSQARTATL [RPC10]", "REPORTED_PROPERTY": "protein stability index", "TEST_VALUE": 2.86}

Entry SSTIDAPAFHTSGKVEL [SRB8] — recorded protein stability index = 2.87

Value of protein stability index reported for the sequence TKKSKLESTKAETDYVD [DSN1] is 3.03

Note to self: protein stability index recorded for ASLKIKNATDLQQAKLR [SMC3] was 3.09

# protein stability index of KYLEQVLDHQRAIPFRR [RPL17A] = 1.78

Lab note: NPVTLNEDSKAFHTAVL [NUT1] gave protein stability index of 2.41

Query LATDVTTLNEMFRYKTN [PUP3] yields protein stability index of 2.53

Input RMLSFEDISKATHLPKD [RPN9] . Output protein stability index: 3.02
